Settings: in NMP, 278.15 K
Attribute Measured: solubility (mole fraction)

[[record]]
smiles_representation = "N#Cc1cccc([N+](=O)[O-])c1C#N"
attribute_measured = "solubility (mole fraction)"
endpoint_result = 0.0839


====

Details: in toluene, 318.15 K
Attribute Measured: solubility (mole fraction)

[[record]]
smiles_representation = "N#Cc1cccc([N+](=O)[O-])c1C#N"
attribute_measured = "solubility (mole fraction)"
endpoint_result = 0.00437


====

Conditions: in water, 313.15 K
Attribute Measured: solubility (mole fraction)

[[record]]
smiles_representation = "N#Cc1cccc([N+](=O)[O-])c1C#N"
attribute_measured = "solubility (mole fraction)"
endpoint_result = 0.00021

